# System: WI-38 human normal fibroblast cells
# EXPERIMENT: cell viability assay (MTT)
# Assay type: cell-based
# APPLIED_CONDITIONS: 125 µg/mL, 24 h, read-out: Validity (%) for sample concentrations (µg/mL) 125
Parameter: viability at 125 µg/mL. Scope: all listed entries.

COMPOUND	viability at 125 µg/mL, %
O=C(O)c1ccc(C2SCC(=O)N2c2nc(-c3cc(Cl)cc4c3-c3ccc(Cl)cc3C4)cs2)cc1 (stereo not shown) [5g]	90.2
O=C1C(Cl)C(c2ccccc2)N1c1nc(-c2cc(Cl)cc3c2-c2ccc(Cl)cc2C3)cs1 (stereo not shown) [6a]	59.1
COc1ccc(C2C(Cl)C(=O)N2c2nc(-c3cc(Cl)cc4c3-c3ccc(Cl)cc3C4)cs2)cc1 (stereo not shown) [6b]	71.6
O=C1C(Cl)C(c2cccs2)N1c1nc(-c2cc(Cl)cc3c2-c2ccc(Cl)cc2C3)cs1 (stereo not shown) [6k]	61.3
O=C1C(Cl)C(c2ccco2)N1c1nc(-c2cc(Cl)cc3c2-c2ccc(Cl)cc2C3)cs1 (stereo not shown) [6j]	66.3
O=C1CSC(c2ccnc3ccccc23)N1c1nc(-c2cc(Cl)cc3c2-c2ccc(Cl)cc2C3)cs1 (stereo not shown) [5n]	50.8
COc1ccc(C2SCC(=O)N2c2nc(-c3cc(Cl)cc4c3-c3ccc(Cl)cc3C4)cs2)cc1 (stereo not shown) [5b]	91.3
COc1cc(C2C(Cl)C(=O)N2c2nc(-c3cc(Cl)cc4c3-c3ccc(Cl)cc3C4)cs2)ccc1O (stereo not shown) [6h]	60.4
O=C1CSC(c2ccc[nH]2)N1c1nc(-c2cc(Cl)cc3c2-c2ccc(Cl)cc2C3)cs1 (stereo not shown) [5l]	57.2
O=C1CSC(c2ccc(Br)cc2)N1c1nc(-c2cc(Cl)cc3c2-c2ccc(Cl)cc2C3)cs1 (stereo not shown) [5d]	86.1
O=C1CSC(c2ccco2)N1c1nc(-c2cc(Cl)cc3c2-c2ccc(Cl)cc2C3)cs1 (stereo not shown) [5j]	61.5
O=C1CSC(c2ccc([N+](=O)[O-])cc2)N1c1nc(-c2cc(Cl)cc3c2-c2ccc(Cl)cc2C3)cs1 (stereo not shown) [5f]	77
O=C(O)c1ccc(C2C(Cl)C(=O)N2c2nc(-c3cc(Cl)cc4c3-c3ccc(Cl)cc3C4)cs2)cc1 (stereo not shown) [6g]	37.4
O=C1C(Cl)C(C=Cc2ccccc2)N1c1nc(-c2cc(Cl)cc3c2-c2ccc(Cl)cc2C3)cs1 (stereo not shown) [6i]	56.5
O=C1C(Cl)C(c2ccnc3ccccc23)N1c1nc(-c2cc(Cl)cc3c2-c2ccc(Cl)cc2C3)cs1 (stereo not shown) [6n]	53.2
O=C1C(Cl)C(c2ccc(Br)cc2)N1c1nc(-c2cc(Cl)cc3c2-c2ccc(Cl)cc2C3)cs1 (stereo not shown) [6d]	78.6
